target.or.test.system: mMC4R (Mus musculus)
Sequence (P56450 whole entry): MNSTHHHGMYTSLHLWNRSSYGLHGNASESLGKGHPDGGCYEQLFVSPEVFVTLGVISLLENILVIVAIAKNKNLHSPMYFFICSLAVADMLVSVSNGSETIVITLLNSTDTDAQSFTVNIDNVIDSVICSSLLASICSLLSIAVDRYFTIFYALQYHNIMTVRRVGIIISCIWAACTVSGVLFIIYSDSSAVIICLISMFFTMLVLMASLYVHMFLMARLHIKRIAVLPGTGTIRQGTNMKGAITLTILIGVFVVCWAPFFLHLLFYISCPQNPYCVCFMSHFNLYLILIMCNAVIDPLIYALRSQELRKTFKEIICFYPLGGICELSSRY
test.summary: cAMP-based β-galactosidase reporter agonist assay in HEK293 cells, mMC4R
stated.conditions: EC50 of substituted peptide divided by EC50 of NDP-MSH; potency loss
observation.type: mMC4R fold difference

molecule | observation.type | endpoint.value
CCCC[C@H](NC(=O)[C@H](CO)NC(=O)[C@H](Cc1ccc(O)cc1)NC(=O)[C@H](CO)NC(C)=O)C(=O)N[C@@H](CCC(=O)O)C(=O)N[C@@H](Cc1c[nH]cn1)C(=O)N[C@@H](C)C(=O)N[C@@H](CCCNC(=N)N)C(=O)N[C@@H](Cc1c[nH]c2ccccc12)C(=O)NCC(=O)N[C@@H](CCCCN)C(=O)N1CCC[C@H]1C(=O)N[C@H](C(N)=O)C(C)C [[Ala^7]NDP-MSH] | mMC4R fold difference | 2370 fold

* * *

target.or.test.system: mMC3R (Mus musculus, UniProt P33033)
Sequence (P33033 whole entry): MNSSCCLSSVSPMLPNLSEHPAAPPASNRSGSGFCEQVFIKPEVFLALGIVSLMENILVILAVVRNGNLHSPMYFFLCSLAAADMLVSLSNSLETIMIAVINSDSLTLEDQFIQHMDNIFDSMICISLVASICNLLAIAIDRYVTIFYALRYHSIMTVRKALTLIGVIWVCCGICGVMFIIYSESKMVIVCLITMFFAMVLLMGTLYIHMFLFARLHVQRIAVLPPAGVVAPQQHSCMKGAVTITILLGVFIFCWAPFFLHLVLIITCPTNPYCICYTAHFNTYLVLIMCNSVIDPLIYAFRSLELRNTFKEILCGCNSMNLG
test.summary: cAMP-based β-galactosidase reporter agonist assay in HEK293 cells, mMC3R
stated.conditions: EC50 of substituted peptide divided by EC50 of NDP-MSH; potency loss

compound | unit.abbrev | mMC3R fold difference
CCCC[C@H](NC(=O)[C@H](CO)NC(=O)[C@H](Cc1ccc(O)cc1)NC(=O)[C@H](CO)NC(C)=O)C(=O)N[C@@H](C)C(=O)N[C@@H](Cc1c[nH]cn1)C(=O)N[C@H](Cc1ccccc1)C(=O)N[C@@H](CCCNC(=N)N)C(=O)N[C@@H](Cc1c[nH]c2ccccc12)C(=O)NCC(=O)N[C@@H](CCCCN)C(=O)N1CCC[C@H]1C(=O)N[C@H](C(N)=O)C(C)C [[Ala^5]NDP-MSH] | fold | 5

* * *

target.or.test.system: mMC3R (Mus musculus, UniProt P33033)
test.summary: cAMP-based β-galactosidase reporter agonist assay in HEK293 cells, mMC3R
pEC50: −log10 of the molar value.
observation.type: pEC50

compound | endpoint.value
CCCC[C@H](NC(=O)[C@H](CO)NC(=O)[C@H](Cc1ccc(O)cc1)NC(=O)[C@H](C)NC(C)=O)C(=O)N[C@@H](CCC(=O)O)C(=O)N[C@@H](Cc1c[nH]cn1)C(=O)N[C@H](Cc1ccccc1)C(=O)N[C@@H](CCCNC(=N)N)C(=O)N[C@@H](Cc1c[nH]c2ccccc12)C(=O)NCC(=O)N[C@@H](CCCCN)C(=O)N1CCC[C@H]1C(=O)N[C@H](C(N)=O)C(C)C [[Ala^1]NDP-MSH] | 9.80
CCCC[C@H](NC(=O)[C@H](CO)NC(=O)[C@H](Cc1ccc(O)cc1)NC(=O)[C@H](CO)NC(C)=O)C(=O)N[C@@H](CCC(=O)O)C(=O)N[C@@H](C)C(=O)N[C@H](Cc1ccccc1)C(=O)N[C@@H](CCCNC(=N)N)C(=O)N[C@@H](Cc1c[nH]c2ccccc12)C(=O)NCC(=O)N[C@@H](CCCCN)C(=O)N1CCC[C@H]1C(=O)N[C@H](C(N)=O)C(C)C [[Ala^6]NDP-MSH] | 9.26
CCCC[C@H](NC(=O)[C@H](CO)NC(=O)[C@H](Cc1ccc(O)cc1)NC(=O)[C@H](CO)NC(C)=O)C(=O)N[C@@H](CCC(=O)O)C(=O)N[C@@H](Cc1c[nH]cn1)C(=O)N[C@H](Cc1ccccc1)C(=O)N[C@@H](CCCNC(=N)N)C(=O)N[C@@H](Cc1c[nH]c2ccccc12)C(=O)N[C@@H](C)C(=O)N[C@@H](CCCCN)C(=O)N1CCC[C@H]1C(=O)N[C@H](C(N)=O)C(C)C [[Ala^10]NDP-MSH] | 9.89
CSCC[C@H](NC(=O)[C@H](C)NC(=O)[C@H](Cc1ccc(O)cc1)NC(=O)[C@H](CO)NC(C)=O)C(=O)N[C@@H](CCC(=O)O)C(=O)N[C@@H](Cc1c[nH]cn1)C(=O)N[C@@H](Cc1ccccc1)C(=O)N[C@@H](CCCNC(=N)N)C(=O)N[C@@H](Cc1c[nH]c2ccccc12)C(=O)NCC(=O)N[C@@H](CCCCN)C(=O)N1CCC[C@H]1C(=O)N[C@H](C(N)=O)C(C)C [[Ala^3]α-MSH] | 7.92
CSCC[C@H](NC(=O)[C@H](CO)NC(=O)[C@H](Cc1ccc(O)cc1)NC(=O)[C@H](CO)NC(C)=O)C(=O)N[C@@H](CCC(=O)O)C(=O)N[C@@H](Cc1c[nH]cn1)C(=O)N[C@@H](Cc1ccccc1)C(=O)N[C@@H](CCCNC(=N)N)C(=O)N[C@@H](Cc1c[nH]c2ccccc12)C(=O)NCC(=O)N[C@@H](CCCCN)C(=O)N1CCC[C@H]1C(=O)N[C@@H](C)C(N)=O [[Ala^13]α-MSH] | 7.38
CSCC[C@H](NC(=O)[C@H](CO)NC(=O)[C@H](C)NC(=O)[C@H](CO)NC(C)=O)C(=O)N[C@@H](CCC(=O)O)C(=O)N[C@@H](Cc1c[nH]cn1)C(=O)N[C@@H](Cc1ccccc1)C(=O)N[C@@H](CCCNC(=N)N)C(=O)N[C@@H](Cc1c[nH]c2ccccc12)C(=O)NCC(=O)N[C@@H](CCCCN)C(=O)N1CCC[C@H]1C(=O)N[C@H](C(N)=O)C(C)C [[Ala^2]α-MSH] | 8.19
CSCC[C@H](NC(=O)[C@H](CO)NC(=O)[C@H](Cc1ccc(O)cc1)NC(=O)[C@H](CO)NC(C)=O)C(=O)N[C@@H](C)C(=O)N[C@@H](Cc1c[nH]cn1)C(=O)N[C@@H](Cc1ccccc1)C(=O)N[C@@H](CCCNC(=N)N)C(=O)N[C@@H](Cc1c[nH]c2ccccc12)C(=O)NCC(=O)N[C@@H](CCCCN)C(=O)N1CCC[C@H]1C(=O)N[C@H](C(N)=O)C(C)C [[Ala^5]α-MSH] | 6.66
CCCC[C@H](NC(=O)[C@H](CO)NC(=O)[C@H](Cc1ccc(O)cc1)NC(=O)[C@H](CO)NC(C)=O)C(=O)N[C@@H](CCC(=O)O)C(=O)N[C@@H](Cc1c[nH]cn1)C(=O)N[C@H](Cc1ccccc1)C(=O)N[C@@H](CCCNC(=N)N)C(=O)N[C@@H](Cc1c[nH]c2ccccc12)C(=O)NCC(=O)N[C@@H](CCCCN)C(=O)N[C@@H](C)C(=O)N[C@H](C(N)=O)C(C)C [[Ala^12]NDP-MSH] | 9.44
CCCC[C@H](NC(=O)[C@H](CO)NC(=O)[C@H](Cc1ccc(O)cc1)NC(=O)[C@H](CO)NC(C)=O)C(=O)N[C@@H](CCC(=O)O)C(=O)N[C@@H](Cc1c[nH]cn1)C(=O)N[C@H](Cc1ccccc1)C(=O)N[C@@H](CCCNC(=N)N)C(=O)N[C@@H](Cc1c[nH]c2ccccc12)C(=O)NCC(=O)N[C@@H](CCCCN)C(=O)N1CCC[C@H]1C(=O)N[C@@H](C)C(N)=O [[Ala^13]NDP-MSH] | 9.52
CCCC[C@H](NC(=O)[C@H](CO)NC(=O)[C@H](Cc1ccc(O)cc1)NC(=O)[C@H](CO)NC(C)=O)C(=O)N[C@@H](CCC(=O)O)C(=O)N[C@@H](Cc1c[nH]cn1)C(=O)N[C@H](Cc1ccccc1)C(=O)N[C@@H](C)C(=O)N[C@@H](Cc1c[nH]c2ccccc12)C(=O)NCC(=O)N[C@@H](CCCCN)C(=O)N1CCC[C@H]1C(=O)N[C@H](C(N)=O)C(C)C [[Ala^8]NDP-MSH] | 8.68
CCCC[C@H](NC(=O)[C@H](CO)NC(=O)[C@H](C)NC(=O)[C@H](CO)NC(C)=O)C(=O)N[C@@H](CCC(=O)O)C(=O)N[C@@H](Cc1c[nH]cn1)C(=O)N[C@H](Cc1ccccc1)C(=O)N[C@@H](CCCNC(=N)N)C(=O)N[C@@H](Cc1c[nH]c2ccccc12)C(=O)NCC(=O)N[C@@H](CCCCN)C(=O)N1CCC[C@H]1C(=O)N[C@H](C(N)=O)C(C)C [[Ala^2]NDP-MSH] | 9.66
CCCC[C@H](NC(=O)[C@H](CO)NC(=O)[C@H](Cc1ccc(O)cc1)NC(=O)[C@H](CO)NC(C)=O)C(=O)N[C@@H](CCC(=O)O)C(=O)N[C@@H](Cc1c[nH]cn1)C(=O)N[C@H](Cc1ccccc1)C(=O)N[C@@H](CCCNC(=N)N)C(=O)N[C@@H](C)C(=O)NCC(=O)N[C@@H](CCCCN)C(=O)N1CCC[C@H]1C(=O)N[C@H](C(N)=O)C(C)C [[Ala^9]NDP-MSH] | 6.53
